Target: Cellular tumor antigen p53 (Homo sapiens)
Assay: TOX21_p53_BLA_p2_ratio: Tox21 HCT-116 p53 Agonism Beta-lactamase Assay, Ratio, Phase 2 (AID 2283592)
Inconclusive results are not listed. Calls of active or inactive are those of the source. The calls were made as follows: active = hit-call score of the fitted dose curve at least 0.9, where 1 is the maximum; inconclusive = response in the unintended direction; inactive = score below 0.9.
Classes used: true = active, false = inactive

compound	group
CN(C)P(=O)(N(C)C)N(C)C	false
COC(=O)c1sccc1S(=O)(=O)NC(=O)Nc1nc(C)nc(OC)n1	false
CNC	false
Cn1sc(Cl)cc1=O	false
CC(C)c1ccc(CO)cc1	false
Nc1cccc(Cl)c1	false
Cc1cc(=O)[nH]o1	false
CNC(=O)O/N=C/C(C)(C)S(C)=O (centres undefined)	false
CCOC(=O)Nc1cccc(OC(=O)Nc2ccccc2)c1	false
CCC(=O)C(CC(C)N(C)C)(c1ccccc1)c1ccccc1 (centres undefined)	false
Cc1ccccc1N	false
CC(=O)C(Cl)C(=O)N(C)C (centres undefined)	false
CCOP(=O)(CN(CCO)CCO)OCC	false
O=C(Cc1ccccc1)c1ccccc1	false
Nc1ncc([N+](=O)[O-])s1	false
O=[N+]([O-])c1c(Cl)c(Cl)cc(Cl)c1Cl	false
C[C@H]1O[C@@H](O[C@H]2[C@@H](O)C[C@H](O[C@H]3[C@@H](O)C[C@H](O[C@H]4CC[C@@]5(C)[C@H](CC[C@@H]6[C@@H]5CC[C@]5(C)[C@@H](C7=CC(=O)OC7)CC[C@]65O)C4)O[C@@H]3C)O[C@@H]2C)C[C@H](O)[C@@H]1O	false
CC(C)(OO)c1ccccc1	false
Oc1ccc(-c2ccccc2)cc1	false
OCc1ccco1	false
CC(=O)OC(c1ccccc1)C(Cl)(Cl)Cl (centres undefined)	false
[O-][Cl+2]([O-])O	false
COP(=S)(OC)Oc1c(Cl)cc(C)cc1Cl	false
CC12CC1(C)C(=O)N(c1cc(Cl)cc(Cl)c1)C2=O (centres undefined)	false
CCC[CH2][Sn]([CH2]CCC)([CH2]CCC)[O]C(=O)c1ccccc1	true
c1ccc(N=NNc2ccccc2)cc1	false
O=C/C=C/c1ccccc1	false
ClCCBr	false
CCC[CH2][Sn]([Cl])([Cl])[Cl]	false
